biological target: CSK (Homo sapiens); construct: purchased Promega; experiment: Tyrosine kinase assay (Kinase Selectivity TK-2, ADP-Glo); format: biochemical; settings: read-out: Inhibitory Effect of the Tyrosine Kinase Activity, CSK
Sequence (P41240 whole entry): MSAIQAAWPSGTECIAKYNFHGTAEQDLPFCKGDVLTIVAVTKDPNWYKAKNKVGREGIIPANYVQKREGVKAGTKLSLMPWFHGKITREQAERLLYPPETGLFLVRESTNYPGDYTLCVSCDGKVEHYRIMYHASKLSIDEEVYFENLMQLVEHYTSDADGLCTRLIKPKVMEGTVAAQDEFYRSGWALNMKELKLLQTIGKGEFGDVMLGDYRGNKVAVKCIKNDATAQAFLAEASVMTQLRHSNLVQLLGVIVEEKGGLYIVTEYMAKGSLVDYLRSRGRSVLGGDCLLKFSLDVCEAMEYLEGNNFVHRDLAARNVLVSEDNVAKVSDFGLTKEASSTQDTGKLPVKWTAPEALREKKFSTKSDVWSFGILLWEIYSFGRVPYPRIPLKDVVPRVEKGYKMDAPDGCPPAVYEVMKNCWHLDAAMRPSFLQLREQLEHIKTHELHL
Parameter threshold = 20%. Response is class 1 when inhibition at 0.5 µM meets or exceeds it, else class 0.

Here's what some known entries look like.
* COc1ccc(/C=C/c2nc(OS(=O)(=O)c3ccc(C)cc3)c3ccccc3n2)c(OC)c1 | class 1
* COc1ccccc1/C=C/c1nc(OS(=O)(=O)c2ccc3c(c2)OCO3)c2ccccc2n1 | class 0
* COc1ccccc1/C=C/c1nc(OS(=O)(=O)c2ccc(C)cc2)c2ccc(Cl)cc2n1 | class 0
* COc1ccccc1/C=C/c1nc(OS(=O)(=O)c2ccc(C)cc2)c2ccccc2n1 | class 1

Task: Threshold query (inhibition at 0.5 µM >= 20%) on "COc1ccccc1/C=C/c1nc(OS(=O)(=O)c2cc3c(cc2Br)OCO3)c2ccccc2n1"
Output: class 1

----------
molecular target: Lck (Homo sapiens); construct: purchased Promega; assay: Tyrosine kinase assay (Kinase Selectivity TK-2, ADP-Glo); type: biochemical; settings: read-out: Inhibitory Effect of the Tyrosine Kinase Activity, Lck
Sequence (P06239 whole entry): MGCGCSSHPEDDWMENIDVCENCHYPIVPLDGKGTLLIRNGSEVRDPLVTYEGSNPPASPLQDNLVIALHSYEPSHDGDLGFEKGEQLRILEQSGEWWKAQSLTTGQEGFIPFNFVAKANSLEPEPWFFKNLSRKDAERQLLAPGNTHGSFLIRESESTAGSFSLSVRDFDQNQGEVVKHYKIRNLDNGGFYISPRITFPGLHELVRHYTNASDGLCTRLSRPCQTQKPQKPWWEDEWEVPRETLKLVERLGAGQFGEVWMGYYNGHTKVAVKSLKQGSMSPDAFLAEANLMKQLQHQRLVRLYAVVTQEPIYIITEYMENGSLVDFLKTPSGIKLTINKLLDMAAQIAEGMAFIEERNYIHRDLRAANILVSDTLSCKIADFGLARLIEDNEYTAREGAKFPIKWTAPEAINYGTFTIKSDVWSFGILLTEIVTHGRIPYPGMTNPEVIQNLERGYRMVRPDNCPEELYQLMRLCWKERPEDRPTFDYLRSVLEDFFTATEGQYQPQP
// inhibition at 0.5 µM lookup, one value per entry
Provide only the numeric value, understood in %.

Task: Quote inhibition at 0.5 µM reported for "COc1ccc(/C=C/c2nc(OS(=O)(=O)c3ccc(C)cc3)c3ccccc3n2)cc1" please.
Output: 11.2

----------
Selectivity index, A549 by entry:
test system: A549 cells; test: MTS cytotoxicity assay, A549; assay type: cell-based, human; details: NHDF vs A549

Recorded results for 4 molecules are shown here.
• COc1ccccc1/C=C/c1nc(OS(=O)(=O)c2cc3c(cc2Br)OCO3)c2ccccc2n1 = 1.00
• COc1ccc(/C=C/c2nc(OS(=O)(=O)c3ccc(C)cc3)c3ccccc3n2)cc1 = 1.00
• COc1ccccc1/C=C/c1nc(OS(=O)(=O)c2ccc(C)cc2)c2ccc(Cl)cc2n1 = 1.23
• COc1ccccc1/C=C/c1nc(OS(=O)(=O)c2ccc3c(c2)OCO3)c2ccccc2n1 = 1.00

Task: Tell me measured Selectivity index, A549 for "COc1ccc(/C=C/c2nc(OS(=O)(=O)c3ccc(C)cc3)c3ccccc3n2)c(OC)c1" please.
Output: 1.00

Task: Using known records, supply Selectivity index, A549 for "COc1ccccc1/C=C/c1nc(OS(=O)(=O)c2ccc(C)cc2)c2ccccc2n1"
Output: 2.20

----------
test system: A549 cells; assay: MTS cytotoxicity assay, A549; type: cell-based, human; conditions: A549; 72 h incubation, MTS
quantity_name: pIC50
Quick note: pIC50 values are minus log10 of concentrations in mol/L.

Task: Quote pIC50 with test system A549 cells for COc1ccccc1/C=C/c1nc(OS(=O)(=O)c2ccc(C)cc2)c2ccc(Cl)cc2n1 [BS3]
Output: 5.12

----------
system: U-251 cells; experiment: MTS cytotoxicity assay, U-251; assay type: cell-based, human; settings: NHDF vs U-251
Below, each entry is listed alongside its reported Selectivity index, U-251.

• COc1ccccc1/C=C/c1nc(OS(=O)(=O)c2cc3c(cc2Br)OCO3)c2ccccc2n1 = 6.80
• COc1ccccc1/C=C/c1nc(OS(=O)(=O)c2ccc(C)cc2)c2ccccc2n1 = 13.11

Task: Using known records, supply Selectivity index, U-251 for "COc1ccccc1/C=C/c1nc(OS(=O)(=O)c2ccc3c(c2)OCO3)c2ccccc2n1"
Output: 6.61

Task: Using the record for "COc1ccccc1/C=C/c1nc(OS(=O)(=O)c2ccc(C)cc2)c2ccc(Cl)cc2n1" , state its measured Selectivity index, U-251.
Output: 5.36

----------
molecular target: BTK (Homo sapiens); construct: purchased Promega; test: Tyrosine kinase assay (Kinase Selectivity TK-2, ADP-Glo); format: biochemical; conditions: read-out: Inhibitory Effect of the Tyrosine Kinase Activity, BTK
Sequence (Q06187 whole entry): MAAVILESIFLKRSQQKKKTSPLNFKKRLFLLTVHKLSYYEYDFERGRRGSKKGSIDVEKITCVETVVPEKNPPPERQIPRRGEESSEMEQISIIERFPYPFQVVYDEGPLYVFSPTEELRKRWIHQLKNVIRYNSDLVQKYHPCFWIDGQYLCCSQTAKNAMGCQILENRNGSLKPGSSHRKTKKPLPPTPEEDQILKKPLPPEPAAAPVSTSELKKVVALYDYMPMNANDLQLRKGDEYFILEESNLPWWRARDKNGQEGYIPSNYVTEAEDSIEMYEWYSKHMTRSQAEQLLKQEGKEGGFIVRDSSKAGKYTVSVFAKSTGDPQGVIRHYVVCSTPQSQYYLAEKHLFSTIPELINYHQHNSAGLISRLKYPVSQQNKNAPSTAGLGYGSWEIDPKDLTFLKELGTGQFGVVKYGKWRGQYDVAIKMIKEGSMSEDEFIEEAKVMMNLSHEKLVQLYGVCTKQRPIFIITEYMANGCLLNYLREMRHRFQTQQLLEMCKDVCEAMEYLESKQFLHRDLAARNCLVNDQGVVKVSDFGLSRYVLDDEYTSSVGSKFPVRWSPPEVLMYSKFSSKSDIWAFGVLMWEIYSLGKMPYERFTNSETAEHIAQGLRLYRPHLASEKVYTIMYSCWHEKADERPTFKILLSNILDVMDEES
quantity_name: inhibition at 0.5 µM (%)
Give a bare numeral; the unit % is implied.

Reference set (3 entries):
- COc1ccccc1/C=C/c1nc(OS(=O)(=O)c2ccc(C)cc2)c2ccccc2n1: 26.9
- COc1ccccc1/C=C/c1nc(OS(=O)(=O)c2cc3c(cc2Br)OCO3)c2ccccc2n1: 40.2
- COc1ccc(/C=C/c2nc(OS(=O)(=O)c3ccc(C)cc3)c3ccccc3n2)cc1: 8.59

Task: Using BTK (Homo sapiens) as the test system, report measured inhibition at 0.5 µM of "COc1ccccc1/C=C/c1nc(OS(=O)(=O)c2ccc3c(c2)OCO3)c2ccccc2n1" .
Output: 18.8

Task: Report value: inhibition at 0.5 µM, system: BTK (Homo sapiens), compound: "COc1ccc(/C=C/c2nc(OS(=O)(=O)c3ccc(C)cc3)c3ccccc3n2)c(OC)c1"
Output: 17.9

Task: Please report the measured inhibition at 0.5 µM for "COc1ccccc1/C=C/c1nc(OS(=O)(=O)c2ccc(C)cc2)c2ccc(Cl)cc2n1" tested on BTK (Homo sapiens).
Output: 30.7

----------
Listed here are molecules together with their documented inhibition at 0.5 µM.
target: ABL1 (Homo sapiens); construct: purchased Promega; assay: Tyrosine kinase assay (Kinase Selectivity TK-2, ADP-Glo); format: biochemical; conditions: read-out: Inhibitory Effect of the Tyrosine Kinase Activity, ABL1
Sequence (P00519 whole entry): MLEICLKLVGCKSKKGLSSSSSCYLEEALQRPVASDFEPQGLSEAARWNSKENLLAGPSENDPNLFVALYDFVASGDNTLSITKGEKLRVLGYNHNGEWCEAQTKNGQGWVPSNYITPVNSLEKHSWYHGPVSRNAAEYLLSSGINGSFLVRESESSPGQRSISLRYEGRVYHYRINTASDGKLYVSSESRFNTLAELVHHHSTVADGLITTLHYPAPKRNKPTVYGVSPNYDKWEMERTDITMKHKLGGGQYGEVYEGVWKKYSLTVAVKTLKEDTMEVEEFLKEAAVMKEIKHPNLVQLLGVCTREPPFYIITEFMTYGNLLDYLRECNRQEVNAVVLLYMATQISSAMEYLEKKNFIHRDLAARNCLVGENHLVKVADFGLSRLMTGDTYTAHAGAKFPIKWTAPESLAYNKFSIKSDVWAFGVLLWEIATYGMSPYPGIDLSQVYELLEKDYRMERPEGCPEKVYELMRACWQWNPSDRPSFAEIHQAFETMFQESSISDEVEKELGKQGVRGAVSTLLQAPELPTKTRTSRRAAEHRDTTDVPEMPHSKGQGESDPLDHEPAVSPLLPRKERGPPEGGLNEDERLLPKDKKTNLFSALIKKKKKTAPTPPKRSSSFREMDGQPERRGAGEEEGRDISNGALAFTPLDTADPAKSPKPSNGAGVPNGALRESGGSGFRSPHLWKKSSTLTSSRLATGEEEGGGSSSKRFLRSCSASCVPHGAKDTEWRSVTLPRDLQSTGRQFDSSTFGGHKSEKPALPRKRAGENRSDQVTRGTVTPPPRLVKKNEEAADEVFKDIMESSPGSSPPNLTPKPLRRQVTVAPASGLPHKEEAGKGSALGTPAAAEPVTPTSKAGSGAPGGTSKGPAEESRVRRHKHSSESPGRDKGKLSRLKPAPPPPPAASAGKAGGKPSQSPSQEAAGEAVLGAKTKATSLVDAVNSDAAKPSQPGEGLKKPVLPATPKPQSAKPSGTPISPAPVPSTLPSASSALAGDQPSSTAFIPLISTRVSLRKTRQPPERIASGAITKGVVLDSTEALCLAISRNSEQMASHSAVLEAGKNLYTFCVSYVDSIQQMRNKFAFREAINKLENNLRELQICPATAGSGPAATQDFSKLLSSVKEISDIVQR

- COc1ccccc1/C=C/c1nc(OS(=O)(=O)c2ccc(C)cc2)c2ccccc2n1 [BS4]: 0%
- COc1ccc(/C=C/c2nc(OS(=O)(=O)c3ccc(C)cc3)c3ccccc3n2)c(OC)c1 [BS6]: 0%
- COc1ccccc1/C=C/c1nc(OS(=O)(=O)c2ccc3c(c2)OCO3)c2ccccc2n1 [BS1]: 28.4%
- COc1ccccc1/C=C/c1nc(OS(=O)(=O)c2ccc(C)cc2)c2ccc(Cl)cc2n1 [BS3]: 0%
- COc1ccccc1/C=C/c1nc(OS(=O)(=O)c2cc3c(cc2Br)OCO3)c2ccccc2n1 [BS2]: 0%

Task: Provide inhibition at 0.5 µM, recorded with ABL1 (Homo sapiens), of COc1ccc(/C=C/c2nc(OS(=O)(=O)c3ccc(C)cc3)c3ccccc3n2)cc1 [BS5]
Output: 0%

----------
target: Src (Homo sapiens, UniProt P12931); construct: purchased Promega; test: Tyrosine kinase assay (Kinase Selectivity TK-2, ADP-Glo); type: biochemical; settings: read-out: Inhibitory Effect of the Tyrosine Kinase Activity, Src
Sequence (P12931 whole entry): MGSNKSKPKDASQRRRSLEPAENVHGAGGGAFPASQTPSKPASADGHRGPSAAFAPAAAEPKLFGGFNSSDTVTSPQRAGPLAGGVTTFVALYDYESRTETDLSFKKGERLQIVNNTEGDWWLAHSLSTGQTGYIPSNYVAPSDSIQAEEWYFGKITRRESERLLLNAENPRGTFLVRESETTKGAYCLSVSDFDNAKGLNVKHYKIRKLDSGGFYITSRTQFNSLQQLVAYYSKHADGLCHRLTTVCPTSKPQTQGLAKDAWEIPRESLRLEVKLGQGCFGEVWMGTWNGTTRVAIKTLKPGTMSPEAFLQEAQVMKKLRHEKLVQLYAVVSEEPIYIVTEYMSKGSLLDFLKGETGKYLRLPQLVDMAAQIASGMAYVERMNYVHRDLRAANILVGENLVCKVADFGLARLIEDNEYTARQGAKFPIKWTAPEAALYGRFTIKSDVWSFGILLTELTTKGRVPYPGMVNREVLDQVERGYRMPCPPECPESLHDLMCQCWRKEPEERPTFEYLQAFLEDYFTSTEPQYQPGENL
Listed molecules paired with reported inhibition at 0.5 µM
Write down the numeric answer in % and omit the unit.

* COc1ccccc1/C=C/c1nc(OS(=O)(=O)c2ccc(C)cc2)c2ccc(Cl)cc2n1 | 2.73

Please look at the following molecule next.
Task: Could you please provide reported inhibition at 0.5 µM for "COc1ccccc1/C=C/c1nc(OS(=O)(=O)c2ccc3c(c2)OCO3)c2ccccc2n1" ? Thanks!
Output: 0.19

----------
# pIC50 per entry
system: U-251 cells; experiment: MTS cytotoxicity assay, U-251; assay type: cell-based, human; settings: Homo sapiens; U-251; 72 h incubation, MTS
// pIC50: -log10(molar conc.)

* COc1ccc(/C=C/c2nc(NCCCN(C)C)c3ccccc3n2)cc1 [CP-31398, reference compound] | 4.73

Kindly review the next compound as well.
Task: Please give the documented pIC50 of "COc1ccccc1/C=C/c1nc(OS(=O)(=O)c2ccc3c(c2)OCO3)c2ccccc2n1"
Output: 5.72

----------
Target: Lyn B (Homo sapiens, UniProt P07948)
Construct: purchased Promega
Sequence (P07948 1-491 isoform P07948-2): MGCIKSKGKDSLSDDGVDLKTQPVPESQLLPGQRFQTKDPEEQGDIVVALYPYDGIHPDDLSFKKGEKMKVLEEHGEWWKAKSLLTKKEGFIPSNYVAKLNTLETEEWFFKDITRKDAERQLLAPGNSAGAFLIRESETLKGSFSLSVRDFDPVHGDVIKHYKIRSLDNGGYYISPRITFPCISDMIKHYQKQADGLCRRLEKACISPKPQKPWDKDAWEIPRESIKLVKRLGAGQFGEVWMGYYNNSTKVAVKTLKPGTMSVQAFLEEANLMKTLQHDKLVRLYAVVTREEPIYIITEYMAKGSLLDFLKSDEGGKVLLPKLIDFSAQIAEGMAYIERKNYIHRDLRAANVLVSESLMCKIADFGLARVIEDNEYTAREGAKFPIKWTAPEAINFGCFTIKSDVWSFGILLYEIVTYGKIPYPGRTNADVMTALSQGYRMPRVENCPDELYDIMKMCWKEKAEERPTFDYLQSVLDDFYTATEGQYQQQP
Assay: Tyrosine kinase assay (Kinase Selectivity TK-2, ADP-Glo)
Format: biochemical
Conditions: read-out: Inhibitory Effect of the Tyrosine Kinase Activity, Lyn B
Procedure: Assays using the Kinase Selectivity TK-2 profiling systems and ADP-Glo Kinase Assay (both from Promega) were performed to determine the inhibition of the non-receptor tyrosine kinases. The protocol was previously designed and described by our group in reports. The experiments were performed at least four times. The data are expressed as the percentage of the inhibition activity of tyrosine kinase after treatment with the tested derivatives.
Entries and their inhibition at 0.5 µM values follow.
Remember to follow the number with its unit.

• COc1ccccc1/C=C/c1nc(OS(=O)(=O)c2cc3c(cc2Br)OCO3)c2ccccc2n1 [BS2] = 38%
• COc1ccc(/C=C/c2nc(OS(=O)(=O)c3ccc(C)cc3)c3ccccc3n2)cc1 [BS5] = 0%
• COc1ccccc1/C=C/c1nc(OS(=O)(=O)c2ccc(C)cc2)c2ccccc2n1 [BS4] = 0%

Task: Give inhibition at 0.5 µM for the following compound: COc1ccccc1/C=C/c1nc(OS(=O)(=O)c2ccc(C)cc2)c2ccc(Cl)cc2n1 [BS3]
Output: 0%

Task: Given COc1ccc(/C=C/c2nc(OS(=O)(=O)c3ccc(C)cc3)c3ccccc3n2)c(OC)c1 [BS6] , respond with its inhibition at 0.5 µM.
Output: 0%

Task: Read the entry COc1ccccc1/C=C/c1nc(OS(=O)(=O)c2ccc3c(c2)OCO3)c2ccccc2n1 [BS1] and write its reported inhibition at 0.5 µM.
Output: 0%

----------
system: A549 cells; test: MTS cytotoxicity assay, A549; type: cell-based, human; conditions: Homo sapiens, A549, 72 h, A549; 72 h incubation, MTS
pIC50: −log10 of the molar value.
As shown below, each of these compounds has a reported pIC50 value.

- COc1ccc(/C=C/c2nc(OS(=O)(=O)c3ccc(C)cc3)c3ccccc3n2)cc1 [BS5]: < 4.60

Task: Determine reported pIC50 for COc1ccc(/C=C/c2nc(OS(=O)(=O)c3ccc(C)cc3)c3ccccc3n2)c(OC)c1 [BS6] ; test system: A549 cells.
Output: < 4.60

Task: Recall the reported pIC50 of COc1ccccc1/C=C/c1nc(OS(=O)(=O)c2ccc(C)cc2)c2ccccc2n1 [BS4] when tested on A549 cells.
Output: 4.95

Task: Give measured pIC50 for COc1ccccc1/C=C/c1nc(OS(=O)(=O)c2ccc(C)cc2)c2ccc(Cl)cc2n1 [BS3] (A549 cells).
Output: 5.12

Task: For A549 cells, give pIC50 of the listed compound: COc1ccccc1/C=C/c1nc(OS(=O)(=O)c2cc3c(cc2Br)OCO3)c2ccccc2n1 [BS2]
Output: < 4.60

Task: Lab note: A549 cells assay, enter pIC50 for COc1ccccc1/C=C/c1nc(OS(=O)(=O)c2ccc3c(c2)OCO3)c2ccccc2n1 [BS1] here
Output: < 4.60

Data origin: paper PMC8068801
